- Subject Of Test: T1, hROR2ECD-his (human, UniProt Q01974 34-403)
- T1 construct: extracellular domain; bought, Acrobiosystems R02-H52E5; also called huROR2-his
- Experiment Notes: ELISA, plate coated with hROR2 ECD-his
# ELISA signal (called MFI) listing for each entry below
Lab note: jot down the number only; don't add units.

Would you please look over these solved cases?
{"Binder": "PR001352 (antibody, human IgG1, kappa, V domains shown, fully human IgG1, kappa) VH: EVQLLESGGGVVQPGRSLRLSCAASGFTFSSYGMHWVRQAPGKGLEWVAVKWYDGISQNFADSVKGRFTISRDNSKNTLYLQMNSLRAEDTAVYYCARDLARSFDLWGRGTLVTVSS VL: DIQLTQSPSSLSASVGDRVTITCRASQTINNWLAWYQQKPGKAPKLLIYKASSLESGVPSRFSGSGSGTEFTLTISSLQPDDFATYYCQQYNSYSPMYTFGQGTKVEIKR", "ELISA signal (called MFI)": 0.0335}
{"Binder": "PR001368 (antibody, V domains shown, fully human IgG1, kappa) VH: QVQLVESGGGVVQPGRSLRLSCAASGFTFSTYGMHWVRQAPGKGLEWVAVIWYDGSDTDYADSVKGRFTISRDTSKNTLYLQMNSLRAEDTAVYYCAREQARSFDLWGRGTLVTVSS VL: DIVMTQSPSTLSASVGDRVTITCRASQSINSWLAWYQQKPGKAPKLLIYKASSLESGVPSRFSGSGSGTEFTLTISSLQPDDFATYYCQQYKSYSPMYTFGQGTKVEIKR", "ELISA signal (called MFI)": 0.0255}
{"Binder": "PR001415 (antibody, human IgG1, kappa, V domains shown, fully human IgG1, kappa) VH: EVQLVESGGGVVQPGRSLRLSCAASGFTFSNSGMHWVRQAPGKGLEWVAIMWYDGSNKDYADSVKGRFTISRDTSKNTLYLQMNSLRAEDTAVYYCAREQARSFDLWGRGTLVTVSS VL: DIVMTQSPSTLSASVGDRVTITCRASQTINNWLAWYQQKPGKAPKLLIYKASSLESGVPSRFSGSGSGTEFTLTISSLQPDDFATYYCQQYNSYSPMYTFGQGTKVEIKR", "ELISA signal (called MFI)": 0.03}
{"Binder": "PR001358 (antibody, human IgG1, kappa, V domains shown, fully human IgG1, kappa) VH: QVQLVQSGGGVVQPGRSLRLSCAASGFTFSSYAMHWVRQAPGKGLEWVAIMWYDGSNTDYADSVKGRFTISRDTSKNTLFLQMNSLRAEDTAVYYCAREQARSFDLWGRGTLVTVSS VL: DIVMTQSPSTLSASVGDRVTITCRASQSINSWLAWYQQKPGKAPKLLIYKASNLESGVPSRFSGSGSGTEFTLTISSLQPDDFATYYCQQYKSYSPMYTFGQGTKVDIKR", "ELISA signal (called MFI)": 0.049}
{"Binder": "PR001369 (antibody, human IgG1, kappa, V domains shown, fully human IgG1, kappa; also called anti-ROR1 1015M3-H10 hIgG1; PR001369(WT)) VH: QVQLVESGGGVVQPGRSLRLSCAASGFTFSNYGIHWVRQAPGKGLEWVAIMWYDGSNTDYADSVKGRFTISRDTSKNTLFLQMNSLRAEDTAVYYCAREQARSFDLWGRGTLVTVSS VL: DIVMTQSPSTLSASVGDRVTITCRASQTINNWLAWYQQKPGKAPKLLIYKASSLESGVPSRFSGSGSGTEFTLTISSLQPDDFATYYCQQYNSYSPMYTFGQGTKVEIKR", "ELISA signal (called MFI)": 0.031}

Q: Consider the binder PR001356 (antibody, human IgG1, kappa, V domains shown, fully human IgG1, kappa; also called anti-ROR1 1015M2-E6 hIgG1; PR001356(WT)) VH: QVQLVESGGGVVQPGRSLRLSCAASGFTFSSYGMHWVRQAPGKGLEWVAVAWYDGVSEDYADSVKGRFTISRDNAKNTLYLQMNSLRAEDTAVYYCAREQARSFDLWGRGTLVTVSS VL: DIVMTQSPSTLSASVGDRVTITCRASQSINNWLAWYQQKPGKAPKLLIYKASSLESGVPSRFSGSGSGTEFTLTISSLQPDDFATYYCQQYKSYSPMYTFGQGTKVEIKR and give its measured ELISA signal (called MFI).
Ans: 0.0305

Q: Query (binder): PR001361 (antibody, V domains shown, fully human IgG1, kappa) VH: QVQLVQSGGGVVQPGRSLRLSCTASGFTFSRYGMLWVRQAPGKGLEWVAVAWYDGVSEDYADSVKGRFTISRDNSMNTLSLQMNSLRAEDTAVYYCAREQARSFDLWGRGTLVTVSS VL: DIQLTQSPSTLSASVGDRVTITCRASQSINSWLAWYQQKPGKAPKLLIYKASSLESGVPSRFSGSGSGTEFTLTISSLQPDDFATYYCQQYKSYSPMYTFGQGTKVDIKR ; field requested: ELISA signal (called MFI)
Ans: 0.028

Data provenance: patent US20240010721A1
